Data provenance: ChEMBL document CHEMBL3098054

Entries annotated with measured Papp
Tested on: Caco-2
Experiment: Apparent permeability from apical to basolateral side in human Caco2 cells at 10 uM after 90 mins by LC-MS/MS analysis
Format: ADME, cell-based
Details: caco-2, 1.5 h, 10 µM
Quick reminder: number only, in ×10⁻⁶ cm/s, skip the unit.

Give Papp only, for "CO[C@H]1C(=O)[C@]2(C)[C@@H](OC(=O)N(C)C)C[C@H]3OC[C@@]3(OC(C)=O)[C@H]2[C@H](OC(=O)c2ccccc2)[C@]2(O)C[C@H](OC(=O)[C@H](O)[C@H](CC(C)C)NC(=O)OC(C)(C)C)C(C)=C1C2(C)C" , using Caco-2 data. 10.7

Next item in the queue.
Name the recorded Papp of "CO[C@H]1C(=O)[C@]2(C)[C@@H](OC(=O)N(C)C)C[C@H]3OC[C@@]3(OC(C)=O)[C@H]2[C@H](OC(=O)c2ccccc2)[C@]2(O)C[C@H](OC(=O)[C@H](O)[C@@H](NC(=O)OC(C)(C)C)c3ccccc3)C(C)=C1C2(C)C" , assay system Caco-2. 10.6
